Test: PAMPA, compounds measured in multiplex as mixtures (primary protocol)
Conditions: PAMPA, pH 7.4, PAMPA Papp, internal standard, 10 µM, StereoB expt. group BLD
REPORTED_PROPERTY: Papp at 10 µM (nm/s)
Lab book: enter the figure in nm/s, no units written.

# input Supply Papp at 10 µM value. Item: NC(=O)N1c2ccccc2C=Cc2ccccc21 [Carbamazepine]
# output 55

###

Details: MDCK
Positions of bridges follow the written chain, without caps; N, C: chain ends. Non-standard residues stand in square brackets, D forms with d. Residues, ends and D or L forms follow the SMILES beside them. NMeC = CN[C@@H](CS)C(=O)O; NMeA = CN[C@@H](C)C(=O)O; dAbu = CC[C@@H](N)C(=O)O; dNMeA = CN[C@H](C)C(=O)O; Nleu = CC(C)CNCC(=O)O
REPORTED_PROPERTY: Papp (×10⁻⁶ cm/s)
Lab book: enter the figure in ×10⁻⁶ cm/s, no units written.

# input Supply Papp value. Item: CCOC(=O)[C@@H]1CSCC(=O)N[C@H](CC)C(=O)N(C)[C@@H](C)C(=O)N[C@@H](CC(C)C)C(=O)N(C)[C@H](C)C(=O)N(CC(C)C)CC(=O)N[C@H](CC(C)C)C(=O)N(C)[C@H](C)C(=O)N[C@@H](CC(C)C)C(=O)N1C [A1] ({CH2CO}-[dAbu][NMeA]L[dNMeA][Nleu][dL][dNMeA]L[NMeC]-OEt; thioether N-9)
# output 9

###

Assay: PAMPA, compounds measured in multiplex as mixtures (primary protocol)
Conditions: PAMPA, pH 7.4, PAMPA Papp, internal standard, 10 µM, StereoB expt. group BDD
REPORTED_PROPERTY: Papp at 10 µM (×10⁻⁶ cm/s)
Lab book: enter the figure in ×10⁻⁶ cm/s, no units written.

# input Supply Papp at 10 µM value. Item: NC(=O)N1c2ccccc2C=Cc2ccccc21 [Carbamazepine]
# output 5.5

###

Assay: physchem
Settings: pH 7.4, aqueous with cosolvent or surfactant or cyclodextrin, kinetic from dmso stock
Positions of bridges follow the written chain, without caps; N, C: chain ends. Non-standard residues stand in square brackets, D forms with d. Residues, ends and D or L forms follow the SMILES beside them. NMeNva = CCC[C@H](NC)C(=O)O; NMeC = CN[C@@H](CS)C(=O)O; NMeA = CN[C@@H](C)C(=O)O; Nva = CCC[C@H](N)C(=O)O; Abu = CC[C@H](N)C(=O)O; NPrGly = CCCNCC(=O)O
Item-by-item account of solubility kinetic at 24 h
Lab book: enter the figure in µM, no units written.

| MOLECULE | OBSERVED_MEASUREMENT |
| --- | --- |
| CCC[C@@H]1NC(=O)CN(CCC)C(=O)[C@H](CC(C)C)NC(=O)CSC[C@@H](C(=O)OCC)N(C)C(=O)[C@H](CC(C)C)NC(=O)[C@H](C)N(C)C(=O)[C@H](CC(C)C)NC(=O)[C@H](C)N(C)C(=O)[C@H]2CCCN2C1=O [LB07] ({CH2CO}-L[NPrGly][Nva][dP][NMeA]L[NMeA]L[NMeC]-OEt; thioether N-9) | 132 |

# input Supply solubility kinetic at 24 h value. Item: CCC[C@H]1C(=O)N[C@@H](CC)C(=O)N(C)[C@@H](C)C(=O)N[C@@H](CC(C)C)C(=O)N(C)[C@H](C(=O)OCC)CSCC(=O)N[C@@H](CC(C)C)C(=O)N(C)[C@@H](C)C(=O)N[C@@H](CC(C)C)C(=O)N2CCC[C@@H]2C(=O)N1C [LC04] ({CH2CO}-L[NMeA]L[dP][NMeNva][Abu][NMeA]L[NMeC]-OEt; thioether N-9)
# output 183
